meta.source: PubChem BioAssay (Tox21)

measurement description: qHTS assay for identifying genotoxic compounds that show differential cytotoxicity against isogenic chicken DT40 cell lines with known DNA damage response pathways - Rev3 mutant cell line (AID 743014); also: nearly all actives have a fitted effect of over 55% in size; also: potency is read from the fitted curve at half-maximal effect
test conditions: chicken DT40 Rev3-/- viability, CellTiter-Glo, 40 h; series mostly up to 68.4 µM
Results filed as inconclusive are left out. Active and inactive are the calls of the source. Calls follow the shape of the dose curve; as a rule, active = well fitted cell-killing curve with a large enough effect in the repeat runs; inconclusive = weak or mixed curves, or effect the other way; inactive = no such curve, though single readings can be large or run the other way.

molecule	Potency
OCC1CO1 (stereo not given)	inactive
CCC(C)(C)c1ccc(O)c(C(C)(C)CC)c1	27.3 µM (active)
Cc1cccc(C)c1NC1=NCCCS1	inactive
COc1ccc(C(=O)c2c(C)n(CCN3CCOCC3)c3ccccc23)cc1	26.6 µM (active)
C[C@]12C=CC3=C4CCC(=O)C=C4CC[C@H]3[C@@H]1CC[C@@H]2O	68.1 µM (active)
CCCCOC(=O)CCC(=O)OCCCC	inactive
CCCCC(CC)COC(=O)c1c(Br)c(Br)c(Br)c(Br)c1C(=O)OCC(CC)CCCC (stereo not given)	inactive
CCOC(=O)c1cn2nc(OP(=S)(OCC)OCC)cc2nc1C	48.6 µM (active)
Clc1ccc(Cl)c(Cl)c1	inactive
OCCCl	inactive
C=CCSSCC=C	inactive
CCCCCCCCCCCCN(C)C	inactive
CC(Oc1cccc(Cl)c1)C(=O)O (stereo not given)	inactive
N#CC(C#N)=C(C#N)C#N	inactive
SCc1ccccc1	inactive

###

system name: Acetylcholinesterase (Homo sapiens)
measurement description: Acetylcholinesterase (AChE) small molecule antagonists: enzyme-based qHTS assay with human liver microsomes (AID 1347399); also: nearly all actives have a fitted effect of over 60% in size
test conditions: qHTS inhibition; series mostly up to 115 µM
Active and inactive are the calls of the source. Calls follow the shape of the full dose curve.
Outcome codes: 1 for active, 0 for inactive

compound	category
N#CC1(N=NC2(C#N)CCCCC2)CCCCC1	0
CN1CC[C@]23c4c5ccc(O)c4O[C@H]2[C@@H](O)CC[C@H]3[C@H]1C5	0
O=C(O)c1ccc(=O)[nH]c1	0
CCOC(=O)c1cncn1C(C)c1ccccc1 (centres undefined)	0
C=CCc1ccccc1O	0
CCCCCCCCCCCCN(C)C	0
Nc1ccccc1C(=O)OCC(O)CO (centres undefined)	0
CCOC(=O)c1cn2nc(OP(=S)(OCC)OCC)cc2nc1C	1
CCCCNC(=O)OCC#CI	0
O=C(O)c1cc(Cl)ccc1Cl	0
Clc1ccccc1	0
CON(C)C(=O)Nc1ccc(Cl)cc1	0
COc1ccc(C(O)(c2cncnc2)C2CC2)cc1 (centres undefined)	0
C=CC(=O)NC(C)(C)CC(C)=O	0
C=CCN1C[C@H](C)N([C@H](c2ccc(C(=O)N(CC)CC)cc2)c2cccc(OC)c2)C[C@H]1C	0
CN1C[C@H](C(=O)N[C@]2(C)O[C@@]3(O)[C@@H]4CCCN4C(=O)[C@H](Cc4ccccc4)N3C2=O)C=C2c3cccc4[nH]cc(c34)C[C@H]21	0
NCCc1cc(O)c(O)cc1O	0
C=CCOCC1CO1 (centres undefined)	0
O=C1CC[C@@]2(O)[C@H]3Cc4ccc(O)c5c4[C@@]2(CCN3CC2CC2)[C@H]1O5	0
C[N+](C)(C)CCOC(=O)C(O)(c1ccccc1)c1ccccc1	0
CC1(C)CC(=O)CC(C)(C)N1[O]	0
O=S(=O)(Cl)Cl	0
CC(C)(C)N(NC(=O)c1ccc(Cl)cc1)C(=O)c1ccccc1	0
Cc1ccccc1	0
O=C(CCl)CCl	0
COc1ccc2c(c1OC)C(=O)O[C@H]2[C@@H]1c2cc3c(cc2CCN1C)OCO3	0
C=CC(=O)OCC	0
C=C(C)C(=O)OCCCCOC(=O)C(=C)C	0
COc1cc(CC#N)cc(OC)c1OC	0

###

measurement description: qHTS assay to identify small molecule agonists of the estrogen related receptor signaling pathway with the pleiotropic PPARgamma coactivator (PGC) from Tox21 10K library (AID 1224842); also: nearly all actives have a fitted effect of over 15% in size
test conditions: PGC/ERR reporter cell line, luciferase ONE-Glo, 18 h; series mostly up to 92.4 µM
Inconclusive results are not listed. The source made the active and inactive calls. The call rests on the fitted dose curve; in most records, active means well fitted activation curve with a large enough effect in the repeat runs; inconclusive means weak or mixed curves, or effect the other way; inactive means no such curve, though single readings can be large or run the other way.
reported metric: outcome

compound	result
Oc1cccc(Cl)c1	inactive
CCOP(=S)(OCC)Oc1ccc(S(C)=O)cc1 (stereo not drawn)	inactive
CC(C)(C)NCC(O)c1ccccc1Cl (stereo not drawn)	inactive

###

system name: Acetylcholinesterase (Homo sapiens) (UniProt P22303)
Sequence (P22303 whole entry, looked up): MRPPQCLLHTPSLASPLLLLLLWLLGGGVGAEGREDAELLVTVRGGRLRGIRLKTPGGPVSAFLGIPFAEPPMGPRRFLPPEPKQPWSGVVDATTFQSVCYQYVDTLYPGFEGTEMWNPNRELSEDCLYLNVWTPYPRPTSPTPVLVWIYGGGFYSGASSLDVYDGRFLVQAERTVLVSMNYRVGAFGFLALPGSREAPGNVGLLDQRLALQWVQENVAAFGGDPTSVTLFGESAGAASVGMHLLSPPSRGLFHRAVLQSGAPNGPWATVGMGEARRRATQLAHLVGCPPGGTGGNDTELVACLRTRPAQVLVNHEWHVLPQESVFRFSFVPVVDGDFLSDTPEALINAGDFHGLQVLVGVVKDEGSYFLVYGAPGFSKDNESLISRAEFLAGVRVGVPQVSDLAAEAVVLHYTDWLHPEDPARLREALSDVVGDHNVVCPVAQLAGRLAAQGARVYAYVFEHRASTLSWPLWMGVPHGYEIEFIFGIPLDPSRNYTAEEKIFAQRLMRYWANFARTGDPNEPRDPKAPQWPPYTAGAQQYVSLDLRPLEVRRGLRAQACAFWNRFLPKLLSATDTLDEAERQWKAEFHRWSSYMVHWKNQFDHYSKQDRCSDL
measurement description: Acetylcholinesterase (AChE) small molecule antagonists: fluorescence cell-based qHTS assay (AID 1347398); also: nearly all actives have a fitted effect of over 50% in size
test conditions: SH-SY5Y cells; AChE activity; series mostly up to 115 µM
Inconclusive results are not listed. The source made the active and inactive calls. The call rests on the fitted dose curve.
Outcome codes: t (active), f (inactive)

compound	system name	category
CCSCc1ccccc1OC(=O)NC	Acetylcholinesterase (Homo sapiens) (UniProt P22303)	t
CC(=O)OC(c1ccccc1)C(Cl)(Cl)Cl (stereo unspecified)	Acetylcholinesterase (Homo sapiens) (UniProt P22303)	f
N#CC(C#N)=Cc1ccc(O)c(O)c1	Acetylcholinesterase (Homo sapiens) (UniProt P22303)	f
N#CC1(N=NC2(C#N)CCCCC2)CCCCC1	Acetylcholinesterase (Homo sapiens) (UniProt P22303)	f
Cc1nnc(-c2ccccc2)c(=O)n1N	Acetylcholinesterase (Homo sapiens) (UniProt P22303)	f
CCCCNC(=O)OCC#CI	Acetylcholinesterase (Homo sapiens) (UniProt P22303)	f
Clc1ccc2ccccc2c1	Acetylcholinesterase (Homo sapiens) (UniProt P22303)	f
COc1cc(C[C@@H](C)N)c(OC)cc1Br	Acetylcholinesterase (Homo sapiens) (UniProt P22303)	f
C=CCOC(=O)C(C)(C)OC(=O)c1cc(-n2c(=O)cc(C(F)(F)F)n(C)c2=O)ccc1Cl	Acetylcholinesterase (Homo sapiens) (UniProt P22303)	f
CCOC(=O)NC(O)C(Cl)(Cl)Cl (stereo unspecified)	Acetylcholinesterase (Homo sapiens) (UniProt P22303)	f
CCOP(=O)(SC(C)CC)N1CCSC1=O (stereo unspecified)	Acetylcholinesterase (Homo sapiens) (UniProt P22303)	f
CCNC(=O)NC(=O)/C(C#N)=N/OC	Acetylcholinesterase (Homo sapiens) (UniProt P22303)	f
CC(Cl)C(=O)O (stereo unspecified)	Acetylcholinesterase (Homo sapiens) (UniProt P22303)	f
CCC1(C2=NCCN2)Cc2ccccc2O1 (stereo unspecified)	Acetylcholinesterase (Homo sapiens) (UniProt P22303)	f
O=C([O-])c1ccccn1.O=C([O-])c1ccccn1.O=C([O-])c1ccccn1.[Cr+3]	Acetylcholinesterase (Homo sapiens) (UniProt P22303)	f
CCCC[N+]1(C)[C@@H]2CC(OC(=O)[C@H](CO)c3ccccc3)C[C@H]1[C@@H]1O[C@@H]12 (stereo partly specified)	Acetylcholinesterase (Homo sapiens) (UniProt P22303)	f
O=C(O)C(Cl)(Cl)Br	Acetylcholinesterase (Homo sapiens) (UniProt P22303)	f
CCCCCCCCCCCC[N+](C)(C)CCOc1ccccc1	Acetylcholinesterase (Homo sapiens) (UniProt P22303)	t
CCOC(=O)c1cncn1C(C)c1ccccc1 (stereo unspecified)	Acetylcholinesterase (Homo sapiens) (UniProt P22303)	f
NCCc1cc(O)c(O)cc1O	Acetylcholinesterase (Homo sapiens) (UniProt P22303)	f
C=CCN1C[C@H](C)N([C@H](c2ccc(C(=O)N(CC)CC)cc2)c2cccc(OC)c2)C[C@H]1C	Acetylcholinesterase (Homo sapiens) (UniProt P22303)	f
CCC(C)(C)c1ccc(O)c(C(C)(C)CC)c1	Acetylcholinesterase (Homo sapiens) (UniProt P22303)	f
CCN(C(C)=O)c1cccc(-c2ccnc3c(C#N)cnn23)c1	Acetylcholinesterase (Homo sapiens) (UniProt P22303)	f
O=C1c2ccccc2C(=O)N1SC(Cl)(Cl)Cl	Acetylcholinesterase (Homo sapiens) (UniProt P22303)	f
C=CC(=O)OCC	Acetylcholinesterase (Homo sapiens) (UniProt P22303)	f
COC(=O)C1(O)c2ccccc2-c2ccccc21	Acetylcholinesterase (Homo sapiens) (UniProt P22303)	f
C1CCNCC1	Acetylcholinesterase (Homo sapiens) (UniProt P22303)	f
OCCCl	Acetylcholinesterase (Homo sapiens) (UniProt P22303)	f
C[N+](C)(C)CC1CO1 (stereo unspecified)	Acetylcholinesterase (Homo sapiens) (UniProt P22303)	f
CCC(=O)O[C@@H]1C=C2CCC3C(CCC4(C)C3CC[C@@H]4OC(=O)CC)C2CC1 (stereo partly specified)	Acetylcholinesterase (Homo sapiens) (UniProt P22303)	f
Nc1cc(Cl)cc(C(=O)O)c1Cl	Acetylcholinesterase (Homo sapiens) (UniProt P22303)	f
Nc1ccccc1C(=O)OCC(O)CO (stereo unspecified)	Acetylcholinesterase (Homo sapiens) (UniProt P22303)	f
Clc1ccccc1	Acetylcholinesterase (Homo sapiens) (UniProt P22303)	f
O=C=NC1CCCCC1	Acetylcholinesterase (Homo sapiens) (UniProt P22303)	f
CC[N+]1(C)CCCC(OC(=O)C(O)(c2ccccc2)c2ccccc2)C1 (stereo unspecified)	Acetylcholinesterase (Homo sapiens) (UniProt P22303)	f
CCc1cnc(C2=NC(C)(C(C)C)C(=O)N2)c(C(=O)O)c1 (stereo unspecified)	Acetylcholinesterase (Homo sapiens) (UniProt P22303)	f
O=C(Cc1ccccc1)OCCc1ccccc1	Acetylcholinesterase (Homo sapiens) (UniProt P22303)	f
O=C(O)C(F)(F)C(F)(F)C(F)(F)C(F)(F)C(F)(F)F	Acetylcholinesterase (Homo sapiens) (UniProt P22303)	f
FC(F)OC(F)(F)C(F)Cl (stereo unspecified)	Acetylcholinesterase (Homo sapiens) (UniProt P22303)	f
CCCCCCCCCCCCN(C)C	Acetylcholinesterase (Homo sapiens) (UniProt P22303)	f
CC(Oc1cc(Cl)c(Cl)cc1Cl)C(=O)O (stereo unspecified)	Acetylcholinesterase (Homo sapiens) (UniProt P22303)	f
C[Si](Cn1cncn1)(c1ccc(F)cc1)c1ccc(F)cc1	Acetylcholinesterase (Homo sapiens) (UniProt P22303)	f
CN1C(=O)CN=C(c2ccccc2)c2cc([N+](=O)[O-])ccc21	Acetylcholinesterase (Homo sapiens) (UniProt P22303)	f
CCCCCl	Acetylcholinesterase (Homo sapiens) (UniProt P22303)	f
CC(C)(c1ccccc1)c1cc(-n2nc3ccccc3n2)c(O)c(C(C)(C)c2ccccc2)c1	Acetylcholinesterase (Homo sapiens) (UniProt P22303)	f
CC(C)(C#N)C(C)(C)C#N	Acetylcholinesterase (Homo sapiens) (UniProt P22303)	f
C#CC(O)(C=CCl)CC (stereo unspecified)	Acetylcholinesterase (Homo sapiens) (UniProt P22303)	f
COC1=CC(=O)O[C@@H](/C=C/c2ccc3c(c2)OCO3)C1	Acetylcholinesterase (Homo sapiens) (UniProt P22303)	f
CCOC(=O)c1cn2nc(OP(=S)(OCC)OCC)cc2nc1C	Acetylcholinesterase (Homo sapiens) (UniProt P22303)	t
C[C@]12C=CC3=C4CCC(=O)C=C4CC[C@H]3[C@@H]1CC[C@@H]2O	Acetylcholinesterase (Homo sapiens) (UniProt P22303)	f
CCCBr	Acetylcholinesterase (Homo sapiens) (UniProt P22303)	f
CC(C)(C)N(NC(=O)c1ccc(Cl)cc1)C(=O)c1ccccc1	Acetylcholinesterase (Homo sapiens) (UniProt P22303)	f
CC(C)c1ccc(NC(=O)N(C)C)cc1	Acetylcholinesterase (Homo sapiens) (UniProt P22303)	f
Cc1cccc(C)c1NC1=NCCCS1	Acetylcholinesterase (Homo sapiens) (UniProt P22303)	f
O=C(CCl)CCl	Acetylcholinesterase (Homo sapiens) (UniProt P22303)	f
CCOC(C(=O)OCCN(C)C)(c1ccccc1)c1ccccc1	Acetylcholinesterase (Homo sapiens) (UniProt P22303)	f
